Data provenance is the Immune Epitope Database (IEDB).

target: HLA-A*26:01; experiment: IEDB peptide-MHC binding, purified MHC/competitive/fluorescence; filed as Kd, often an IC50 or EC50 that approximates it; bounds were set here for any values at or beyond the usual limits of such assays; conditions: source organism: Vibrio vulnificus CMCP6
endpoint: Kd

# sequence.input, target.entity, recorded.result
measured = [
    ("FGAQMGWPV", "HLA-A*26:01", "≥ 20 µM"),
]

* * *

biological target: HLA-A*24:03; assay: IEDB peptide-MHC binding, purified MHC/direct/fluorescence; filed as Kd, often an IC50 or EC50 that approximates it; bounds were set here for any values at or beyond the usual limits of such assays; conditions: source organism: Inovirus M13
pKd: −log10 of the molar value.
endpoint: pKd

# sequence.input, target.entity, recorded.result
data = [
    ("TFMYVFSTF", "HLA-A*24:03", 8.19),
]
